tested on: HEK-293T; experiment: Multiplex assay against HEK293T; type: toxicity, cell-based; details: human, 12 h, 1 µM, compound concentration 1 uM, replicate 2
// classify: if (Population Pyknosed Nuclei (%) < 30%) fulfilled else not fulfilled

INSERT INTO assay_data (molecule, assignedclass) VALUES
  ('COc1ccc(-c2ccc3c(N4CCOCC4)nc(N4C[C@@H](C)O[C@@H](C)C4)nc3n2)cc1CO [Ku-0063794]', 'fulfilled'),
  ('CCn1cc(-c2ccnc3[nH]c(-c4cccc(CN(C)C)c4)cc23)c(-c2ccc(NC(=O)N(C)C)cc2)n1 [GSK-1070916]', 'fulfilled'),
  ('Cc1ccc2nc(NCCN)c3ncc(C)n3c2c1.O=C(O)C(F)(F)F.O=C(O)C(F)(F)F', 'fulfilled'),
  ('CCOc1cc(C(=O)N2CCC(N3CCN(C)CC3)CC2)ccc1Nc1ncc2c(n1)N(C1CCCC1)c1ccccc1C(=O)N2C', 'not fulfilled'),
  ('CCc1cccc(CC)c1NC(=O)c1nn(C)c2c1CCc1cnc(Nc3ccc(C(=O)NC4CCN(C)CC4)cc3OC(F)(F)F)nc1-2', 'not fulfilled'),
  ('S=C(NCCCc1c[nH]cn1)NCCCN(Cc1ccc(Cl)c(Cl)c1)c1ccc(Br)cn1', 'not fulfilled'),
  ('O=C(Nc1ccc(-c2ccnc(Nc3ccc(N4CCOCC4)cc3)n2)cc1)[C@@H]1CCCN1', 'not fulfilled'),
  ('O=C1N/C(=N/c2ccccc2F)S/C1=C\c1ccc(C(=O)O)cc1', 'not fulfilled'),
  ('O=C(Cc1ccc(-c2ccc(OCCN3CCOCC3)cc2)cn1)NCc1ccccc1 [TIRBANIBULIN]', 'not fulfilled'),
  ('Cl.O=C(c1ccc(Nc2nccc(-c3cc4ccccc4s3)n2)cc1)N1CCC(N2CCCC2)CC1', 'fulfilled'),
  ('NC(=O)c1cccc(-c2cc(Nc3ccc(OC(F)(F)F)cc3)ncn2)c1', 'fulfilled'),
  ('CCN1CCN(Cc2ccc(Nc3ncc(F)c(-c4cc(F)c5nc(C)n(C(C)C)c5c4)n3)nc2)CC1.CS(=O)(=O)O', 'not fulfilled'),
  ('CNc1cc(Oc2cc(C(=O)Nc3cc(N4CCN(C)CC4)cc(C(F)(F)F)c3)ccc2C)ncn1', 'not fulfilled'),
  ('CN1CCC(=C2c3ccccc3CC(=O)c3sccc32)CC1.O=C(O)/C=C/C(=O)O [KETOTIFEN FUMARATE]', 'not fulfilled'),
  ('COc1cccc2cc(-c3nc([C@H]4CC[C@H](C(=O)O)CC4)n4ncnc(N)c34)[nH]c12 [OSI-027]', 'fulfilled'),
  ('COc1cc(N2CCN(C)CC2)ccc1Nc1ncc2c(n1)N(C)c1ccccc1C(=O)N2C', 'not fulfilled'),
  ('CCOc1cc2ncc(C#N)c(Nc3ccc(OCc4ccccn4)c(Cl)c3)c2cc1NC(=O)/C=C/CN(C)C [NERATINIB]', 'fulfilled'),
  ('CCn1c(=O)c(-c2ccc(-c3cncs3)cc2Cl)cc2cnc(Nc3ccc(N4CCN(C)CC4)cc3)nc21', 'not fulfilled'),
  ('COc1cc2ncnc(Nc3ccc(F)c(Cl)c3)c2cc1NC(=O)/C=C/CN1CCCCC1 [DACOMITINIB ANHYDROUS]', 'fulfilled'),
  ('Cc1cc(C)c(S(=O)(=O)N(Cc2ccc(-c3cccc(S(C)(=O)=O)c3)cc2)Cc2ccc(C(F)(F)F)o2)c(C)c1', 'not fulfilled'),
  ('CCc1cccc(CC)c1NC(=O)c1nn(C)c2c1CCc1cnc(Nc3ccc(N4CCN(C)CC4)cc3OC)nc1-2', 'not fulfilled'),
  ('CCNc1cc(N[C@H]2CC[C@H](O)CC2)nc(Nc2ccc3c(ccn3Cc3ccccc3)c2)n1', 'fulfilled'),
  ('Cl.Oc1ccc2c3c1O[C@H]1c4[nH]c5c(c4C[C@@]4(O)[C@@H](C2)N(CC2CC2)CC[C@]314)C[C@@]1(O)[C@H]2Cc3ccc(O)c4c3[C@@]1(CCN2CC1CC1)[C@H]5O4', 'not fulfilled'),
  ('CCCS(=O)(=O)c1nc(NC2CC2)cc(-c2ccc3c(ccn3C3CC(C)(C)NC(C)(C)C3)c2)n1', 'not fulfilled'),
  ('CCOC(=O)c1c(C)[nH]c2ccc3c(c12)CN1CCc2cc(OC)ccc2C1O3 (configuration not stated)', 'not fulfilled'),
  ('CN1C2CCC1CC(OC(c1ccc(F)cc1)c1ccc(F)cc1)C2.Cl (configuration not stated)', 'not fulfilled'),
  ('Cl.O=c1c2cccn2c2ccccc2n1CCCN1CCC(c2ccc(Cl)cc2)CC1', 'not fulfilled'),
  ('CN(C)C(=O)C(CCN1CCC(O)(c2ccc(Cl)cc2)CC1)(c1ccccc1)c1ccccc1.Cl [LOPERAMIDE HYDROCHLORIDE]', 'not fulfilled'),
  ('CN1CCN(C(=O)C(C)(C)c2ccc(C(=O)Nc3cn4cc(-c5cc(C(C)(C)C)cc(C(C)(C)C)c5)ccc4n3)cc2)CC1 [T3-CLK-N]', 'fulfilled'),
  ('Cc1cn(-c2cc(NC(=O)c3ccc(C)c(Nc4nccc(-c5cccnc5)n4)c3)cc(C(F)(F)F)c2)cn1 [NILOTINIB]', 'not fulfilled');

###

system: U2OS; test: Multiplex assay against U2OS; assay type: toxicity, cell-based; conditions: human, 24 h, 10 µM, compound concentration 10 uM, replicate 2
Criterion: Population Membrane Permeable-Phenotype (%) strictly under 20%. Met: t. Not met: f.

INSERT INTO measurements (compound, assignedclass) VALUES
  ('CCc1cccc(CC)c1NC(=O)c1nn(C)c2c1CCc1cnc(Nc3ccc(N4CCN(C)CC4)cc3OC)nc1-2', 'f'),
  ('COc1cccc2cc(-c3nc([C@H]4CC[C@H](C(=O)O)CC4)n4ncnc(N)c34)[nH]c12 [OSI-027]', 't'),
  ('Cc1ccc2nc(NCCN)c3ncc(C)n3c2c1.O=C(O)C(F)(F)F.O=C(O)C(F)(F)F', 'f'),
  ('CCn1cc(-c2ccnc3[nH]c(-c4cccc(CN(C)C)c4)cc23)c(-c2ccc(NC(=O)N(C)C)cc2)n1 [GSK-1070916]', 'f'),
  ('CCN1CCN(Cc2ccc(Nc3ncc(F)c(-c4cc(F)c5nc(C)n(C(C)C)c5c4)n3)nc2)CC1.CS(=O)(=O)O', 'f'),
  ('O=C(Nc1ccc(-n2nc(-c3cccnc3)cc2C(F)(F)F)cn1)c1ccc(-c2ccccc2)c(F)c1 [BI 2049]', 't'),
  ('O=C(Nc1ccc(-c2ccnc(Nc3ccc(N4CCOCC4)cc3)n2)cc1)[C@@H]1CCCN1', 't'),
  ('O=C1N/C(=N/c2ccccc2F)S/C1=C\c1ccc(C(=O)O)cc1', 't');

###

tested on: U2OS; experiment: Multiplex assay against U2OS; format: toxicity, cell-based; details: human, 12 h, 10 µM, compound concentration 10 uM, replicate 1
attributeMeasured: Population Pyknosed Nuclei (%)

INSERT INTO results (compound, value) VALUES
  ('CCCn1c(=O)c2[nH]c(-c3cnn(Cc4cccc(C(F)(F)F)c4)c3)nc2n(CC)c1=O [GS 6201]', '12%'),
  ('COC(=N)c1nc2ccc3ncnc(Nc4ccc(OC)cc4F)c3c2s1', '5%'),
  ('CCn1c(=O)c(-c2ccc(-c3cncs3)cc2Cl)cc2cnc(Nc3ccc(N4CCN(C)CC4)cc3)nc21', '54%'),
  ('CCN1CCN(c2ccc(Nc3cc(N(C)C(=O)Nc4c(Cl)c(OC)cc(OC)c4Cl)ncn3)cc2)CC1 [INFIGRATINIB]', '7%'),
  ('CCOc1cc(C(=O)N2CCC(N3CCN(C)CC3)CC2)ccc1Nc1ncc2c(n1)N(C1CCCC1)c1ccccc1C(=O)N2C', '32%'),
  ('CN(C)C(=O)C(CCN1CCC(O)(c2ccc(Cl)cc2)CC1)(c1ccccc1)c1ccccc1.Cl [LOPERAMIDE HYDROCHLORIDE]', '40%'),
  ('Cc1ccc2nc(NCCN)c3ncc(C)n3c2c1.O=C(O)C(F)(F)F.O=C(O)C(F)(F)F', '17%'),
  ('Cc1ccc(C(=O)Nc2cccc(C(F)(F)F)c2)cc1Nc1nc(-c2cccnc2)nc2c1cnn2C', '38%');

###

test system: Fibroblast; test: Multiplex assay against human fibroblast; format: toxicity, cell-based; details: 24 h, 1 µM, compound concentration 1 uM, replicate 2
attributeMeasured: Population Membrane Permeable-Phenotype (%)

INSERT INTO assay_data (compound, value) VALUES
  ('O=C(Nc1ccc(Cl)cc1)Nc1cccc(-c2cccc(N3CCCC3)n2)c1', 7),
  ('C=CCn1c(=O)c2cnc(Nc3ccc(N4CCN(C)CC4)cc3)nc2n1-c1cccc(C(C)(C)O)n1', 4),
  ('CCn1cc(-c2ccnc3[nH]c(-c4cccc(CN(C)C)c4)cc23)c(-c2ccc(NC(=O)N(C)C)cc2)n1', 21),
  ('O=C(Nc1cccnn1)N1CCC(=Cc2cccc(Oc3ccc(C(F)(F)F)cn3)c2)CC1', 23),
  ('O=C(Nc1ccc(-n2nc(-c3cccnc3)cc2C(F)(F)F)cn1)c1ccc(-c2ccccc2)c(F)c1', 4),
  ('Cl.O=c1c2cccn2c2ccccc2n1CCCN1CCC(c2ccc(Cl)cc2)CC1', 2),
  ('CCOC(=O)c1c(C)[nH]c2ccc3c(c12)CN1CCc2cc(OC)ccc2C1O3 (configuration not stated)', 1),
  ('CN1CCN(C(=O)C(C)(C)c2ccc(C(=O)Nc3cn4cc(-c5cc(C(C)(C)C)cc(C(C)(C)C)c5)ccc4n3)cc2)CC1', 11),
  ('Cl.O=C(c1ccc(Nc2nccc(-c3cc4ccccc4s3)n2)cc1)N1CCC(N2CCCC2)CC1', 8),
  ('Cl.Oc1ccc2c3c1O[C@H]1c4[nH]c5c(c4C[C@@]4(O)[C@@H](C2)N(CC2CC2)CC[C@]314)C[C@@]1(O)[C@H]2Cc3ccc(O)c4c3[C@@]1(CCN2CC1CC1)[C@H]5O4', 10),
  ('CCN1CCN(Cc2ccc(Nc3ncc(F)c(-c4cc(F)c5nc(C)n(C(C)C)c5c4)n3)nc2)CC1.CS(=O)(=O)O', 21),
  ('CNC(=O)c1ccc(Nc2nc(OC3CCCC3)c3c(-c4ccc5nc(C)oc5c4)c[nH]c3n2)c(OC)c1', 19),
  ('NC(=O)c1cccc(-c2cc(Nc3ccc(OC(F)(F)F)cc3)ncn2)c1', 12),
  ('COC(=N)c1nc2ccc3ncnc(Nc4ccc(OC)cc4F)c3c2s1', 7),
  ('CCn1c(=O)c(-c2ccc(-c3cncs3)cc2Cl)cc2cnc(Nc3ccc(N4CCN(C)CC4)cc3)nc21', 1),
  ('S=C(NCCCc1c[nH]cn1)NCCCN(Cc1ccc(Cl)c(Cl)c1)c1ccc(Br)cn1', 16),
  ('COc1ccc(-c2ccc3c(N4CCOCC4)nc(N4C[C@@H](C)O[C@@H](C)C4)nc3n2)cc1CO', 9);
